system: SF-295; assay: NCI tumour cell line growth inhibition, 48 h
Calls of active or inactive are those of the source. No stated cut-off is given here; in the data, active = GI50 up to about 1.1 µM and inactive = higher.
Would you mind answering with one of these outcomes? active, inactive

Assay outcome for Cc1ccc(S(=O)(=O)OC2CC=CC2)cc1 : what was it?
inactive

Assay outcome for O=c1[nH]nc(Cc2ccccc2)n1/N=C\c1ccccc1 : what was it?
inactive

Assay outcome for Nc1cc2ncnn2c(SCC(=O)N/N=C/C(Br)=C\c2ccccc2)n1 : what was it?
inactive

Assay outcome for Cc1cc(NC(=O)C2C3C=CC(O3)C2C(=O)O)no1 (stereo not drawn) : what was it?
inactive

Assay outcome for N=C(N)NS(=O)(=O)c1ccc(Nc2c3ccccc3nc3ccc(C(=O)Nc4ccc(S(N)(=O)=O)cc4)cc23)cc1 : what was it?
inactive

Assay outcome for CCOC(=O)C(NCc1cccc(C(F)(F)F)c1)(NC(=O)CC)C(F)(F)F (stereo not drawn) : what was it?
inactive

Assay outcome for CC(=O)OCC1OC(Oc2cc(C)c(O)cc2C/C=C(\C)CC/C=C(\C)CC(=O)CC(C)C)C(O)C(OC(C)=O)C1OC(C)=O (stereo not drawn) : what was it?
inactive

Assay outcome for CNC(=O)CNC(=O)C(Cc1ccc(NC(=O)CCCCC(C)=O)cc1)NC(=O)C(CCC(=O)OCc1ccccc1)NC(=O)OC(C)(C)C (stereo not drawn) : what was it?
inactive

Assay outcome for CCOC(=O)CC[C@@H](NC(=O)c1ccc(N[C@@H]2c3cc4c(cc3C(c3cc(OC)c(O)c(OC)c3)C3C(=O)OC[C@@H]32)OCO4)cc1)C(=O)OCC (stereo partly drawn) : what was it?
active

Assay outcome for C=C(C)CNCC(=C)C.Oc1c(Cl)c(Cl)c(Cl)c(Cl)c1Cl : what was it?
inactive

Assay outcome for C[Si](C)(C)/C(I)=C/CO : what was it?
inactive

Assay outcome for O=c1c(-c2ccc3c(c2)OCO3)coc2c3c(ccc12)OCO3 : what was it?
inactive

Assay outcome for CC(=O)OC1(Sc2ccccc2)CC2[C@H]3COC(C)(C)O[C@H]3CC[C@@]2(C)CC1=O (stereo partly drawn) : what was it?
inactive

Assay outcome for C[S+](C)CC1OC(n2cnc3c(N)ncnc32)C(O)C1O (stereo not drawn) : what was it?
inactive

Assay outcome for COc1ccc(/C=C2/C(=O)N(C(=O)c3ccc(Cl)cc3)N=C2C)cc1OC : what was it?
inactive

Assay outcome for CSc1nc2c(c(N(C)C)n1)C=Nn1c(nc3ccccc31)S2 : what was it?
inactive

Assay outcome for CCN(CC)CCNc1c2ccccc2nc2cccc([N+](=O)[O-])c12 : what was it?
active

Assay outcome for Cc1ccnc2nc3[nH]c4ccccc4c3cc12 : what was it?
inactive

Assay outcome for O=c1oc2ccccc2c2c(=O)c3ccc(OC/C(=N/O)c4ccc(Cl)cc4)cc3oc12 : what was it?
inactive

Assay outcome for NC(=O)c1nnn(-c2ccccc2)c1O : what was it?
inactive

Assay outcome for CC[N+]1(C)CCC(O)(/C=C/c2ccc(Cl)c(Cl)c2)C(C(=O)/C=C/c2ccc(Cl)c(Cl)c2)C1 (stereo not drawn) : what was it?
inactive

Assay outcome for CC(NNC(=O)c1ccncc1)c1ccc(Cl)cc1Cl (stereo not drawn) : what was it?
inactive

Assay outcome for CC(C)(C)OC(=O)N1N=CCC1c1ccccc1 (stereo not drawn) : what was it?
inactive

Assay outcome for O=C(O)CCC(=O)c1ccc2c(c1)C(C(=O)O)CC2 (stereo not drawn) : what was it?
inactive

Assay outcome for C=C(CS(=O)(=O)c1ccccc1)[P+](c1ccccc1)(c1ccccc1)c1ccccc1 : what was it?
inactive

Assay outcome for CCOC(=O)/C=C(\C(=O)OCC)n1ccc(=O)n(Cc2cnnn2COCCOC(C)=O)c1=O : what was it?
inactive

Assay outcome for COC(=O)/C(C#N)=C(\Nc1ccccc1)N1CCCC1 : what was it?
inactive

Assay outcome for COC(=O)C(=O)OC1(C(C)=O)CC2(c3ccccc3)OC1(c1ccccc1)c1ccccc12 (stereo not drawn) : what was it?
inactive

Assay outcome for C/C(=N/NS(=O)(=O)c1ccccc1)c1cccc[n+]1[O-] : what was it?
inactive

Assay outcome for CC1NC(/C(=C/c2ccccc2O)NC(=O)c2ccccc2)OC1=O (stereo not drawn) : what was it?
inactive

Assay outcome for O=C(CC/C=C(/CS(=O)(=O)c1ccccc1)S(=O)(=O)c1ccccc1)c1ccccc1 : what was it?
inactive

Assay outcome for CC(=O)/C(=C/NC(=S)c1ccncc1)C(=O)Nc1ccccc1C : what was it?
inactive

Assay outcome for Cc1cc(C)c2c(=O)n(CC(O)CN(Cc3ccccc3)CC(O)Cn3sc4nc(C)cc(C)c4c3=O)sc2n1 (stereo not drawn) : what was it?
inactive

Assay outcome for Clc1ccccc1C1SCc2nc3ccccc3n21 (stereo not drawn) : what was it?
inactive

Assay outcome for CC(C)(C)c1cc(C(O)(C(=O)O)C(=O)O)cc(C(C)(C)C)c1O : what was it?
inactive

Assay outcome for CSCC1CC(c2ccc(Cl)cc2)=NO1 (stereo not drawn) : what was it?
inactive

Assay outcome for Cc1nc2sccn2c1C(=O)NNC(N)=S : what was it?
inactive

Assay outcome for C#CCNCC(=O)O : what was it?
inactive

---

tested on: U-251; assay: NCI tumour cell line growth inhibition, 48 h
Calls of active or inactive are those of the source. Cut-off read from the data, not from the text of the source: active = GI50 up to about 1.1 µM and inactive = higher.
Would you mind answering with one of these outcomes? active, inactive

Assay outcome for C=C(C)CC1=C(C(=S)NCCO[Si](C)(C)C(C)(C)C)C(OCC)(OCC)C1=O : what was it?
inactive

Assay outcome for CCOC(=O)Cc1csc(N/N=C2\C(=O)Nc3ccccc32)n1 : what was it?
inactive

Assay outcome for C=C1CCCCCCCCC/C=C/1SCCCSC : what was it?
inactive

Assay outcome for Nc1cc(OCc2ccccc2)c(OCc2ccccc2)cc1C=O : what was it?
inactive

Assay outcome for Cn1c(N)nc(-c2ccc(Cl)cc2)c1SSc1c(-c2ccc(Cl)cc2)nc(N)n1C : what was it?
inactive

Assay outcome for COc1ccc(/C=C/c2nccc3ccccc23)cc1OC : what was it?
inactive

Assay outcome for COC(=O)C(=O)OC1(C(C)=O)CC2(c3ccccc3)OC1(c1ccccc1)c1ccccc12 (stereo unspecified) : what was it?
inactive

Assay outcome for CCOC(=O)CCC1(CCC(=O)OCC)CCCCCCCCC(CCC(=O)OCC)(CCC(=O)OCC)C(=O)C1=O : what was it?
inactive

Assay outcome for CCC(C)C(=O)O[C@H]1C(=O)O[C@@H]2C[C@H]3C(C)=CC(=O)[C@@H](O)[C@]3(C)[C@H]3[C@@H](O)[C@H](O)[C@@]4(C)OC[C@]32[C@@H]14 (stereo partly specified) : what was it?
active

Assay outcome for O=C(O)c1cc(/C=C/c2ccc(O)c(O)c2)ccc1O : what was it?
inactive

Assay outcome for CC1=NN(c2nc(N)nc(/C(C#N)=C/c3ccccc3O)n2)C(C)(C)C1 : what was it?
inactive

---

tested on: SW-620; test: NCI tumour cell line growth inhibition, 48 h
Calls of active or inactive are those of the source. Rule as the data show it: active = GI50 up to about 1.1 µM and inactive = higher.
Kindly supply the reported GI50 values for the records listed here.

# GI50 (molecule: OC/C=C(\I)CCCOCOCc1ccccc1 ) is 44 µM (inactive)

# GI50 (molecule: O=C(CC(O)(c1ccccc1)c1ccc(Cl)cc1)NC(=O)c1ccccc1O (stereo not given) ) is 18.7 µM (inactive)

# GI50 (molecule: C[n+]1ccc(-c2cc[n+](C)cc2)cc1 [PARAQUAT DICHLORIDE] ) is > 42 µM (inactive)

# GI50 (molecule: CC(C)C(C/C=C1\CC(CO)(COC(=O)CC(C(C)C)C(C)C)OC1=O)C(C)C (stereo not given) ) is 7.46 µM (inactive)

# GI50 (molecule: O=C(O)C(F)(F)C(F)(F)C(F)(F)C(F)(F)C(F)(F)C(F)(F)C(F)(F)C(F)(F)F ) is 52.5 µM (inactive)

---

tested on: UO-31; assay: NCI tumour cell line growth inhibition, 48 h
Calls of active or inactive are those of the source. No stated cut-off is given here; in the data, active = GI50 up to about 1.1 µM and inactive = higher.
Would you mind answering with one of these outcomes? yes (1) (active), no (0) (inactive)

Assay outcome for O=[N+]([O-])c1cc(-c2nnc(C34CC5CC(CC(C5)C3)C4)o2)cc([N+](=O)[O-])c1 : what was it?
no (0)

Assay outcome for CN(C)c1ccc(C=c2c3ccccc3n3c2cc(-c2ccc(Cl)cc2)[n+]3C)cc1 : what was it?
yes (1)

Assay outcome for Cc1ccc(C2=Nc3cc(C)c(Cl)cc3S(=O)(=O)NN2)cc1 : what was it?
no (0)

Assay outcome for COc1ccc(-n2cnc3c(NCC(=O)O)ncnc32)cc1 : what was it?
no (0)

Assay outcome for O=C(O)CO/N=C1/C(=C2/C(=O)Nc3ccccc32)Nc2ccccc21 : what was it?
no (0)

Assay outcome for Cc1cccc(C)c1NC(=O)Nc1ccc(S(N)(=O)=O)cc1 : what was it?
no (0)

Assay outcome for CC(C)(C)OC(=O)N1N=CCC1c1ccccc1 (configuration not stated) : what was it?
no (0)

Assay outcome for CCC(C)C(=O)O[C@H]1C(=O)O[C@@H]2C[C@H]3C(C)=CC(=O)[C@@H](O)[C@]3(C)[C@H]3[C@@H](O)[C@H](O)[C@@]4(C)OC[C@]32[C@@H]14 (some centres not stated) : what was it?
yes (1)

Assay outcome for COc1ccc(C2(CC(C)C)CCNC2)cc1OC (configuration not stated) : what was it?
no (0)

Assay outcome for COc1cccc(N2C(=O)CSC2c2cccc(Oc3ccccc3)c2)c1 (configuration not stated) : what was it?
no (0)

Assay outcome for O=CN/C=C/c1cc(O)ccc1O : what was it?
no (0)

Assay outcome for CCN(CC)CCC1(C(=O)OC)SCCc2ccc(C)cc21 (configuration not stated) : what was it?
no (0)

Assay outcome for O=c1[nH]nc(Cc2ccccc2)n1/N=C\c1ccccc1 : what was it?
no (0)

Assay outcome for CC(C)(C)OC(=O)NCC(CNC(=O)OC(C)(C)C)C(N)=O : what was it?
no (0)

Assay outcome for CCOc1ccc(/N=N/c2ccc3cc(/C(C)=N/NC(=O)/C(C#N)=C\c4ccc(N(CCC#N)CCC#N)cc4)c(=O)oc3c2)cc1 : what was it?
no (0)

Assay outcome for O=C(CC(=O)n1nc(-c2ccccc2)c(/N=N/c2ccc(Cl)cc2)c1-c1ccccc1)Nc1cccc(Cl)c1 : what was it?
no (0)

Assay outcome for COC(=O)C12C3C4(C(=O)OC)C1C1(C(=O)OC)C2C3(C(=O)OC)C41C(=O)N(C(C)C)C(C)C (configuration not stated) : what was it?
no (0)

Assay outcome for CC(C)=CC(=O)C1c2cccc(O)c2C(=O)c2c(O)cc(C)cc21 (configuration not stated) : what was it?
no (0)

Assay outcome for Nc1nc(N)c2c(n1)CCC(S(=O)(=O)c1ccc3ccccc3c1)C2 (configuration not stated) : what was it?
no (0)

Assay outcome for CC(=O)OCC(=O)O[C@@H]1[C@H]2[C@@H](OC(=O)c3ccccc3)[C@@H](C)C[C@]2(O)[C@H](OC(C)=O)[C@@]2(C)C[C@]1(OC(C)=O)C[C@H]1C(=O)C(C)(C)[C@@H](OC(C)=O)[C@@H]12 : what was it?
yes (1)

Assay outcome for CSCCC(NC(=O)OC(C)(C)C)C(=O)NCCNc1ccc(NCCNC(=O)C(CCSC)NC(=O)OC(C)(C)C)c2c1C(=O)c1ccccc1C2=O (configuration not stated) : what was it?
no (0)

Assay outcome for COc1ccccc1C1Nn2c(nc3ccccc3c2=O)N1c1ccc(C)cc1 (configuration not stated) : what was it?
no (0)

Assay outcome for Nc1nc(N)c2nn(-c3ccc(C(=O)O)cc3)nc2n1 : what was it?
no (0)

Assay outcome for COC(=O)/C(C#N)=C(\Nc1ccccc1)N1CCCC1 : what was it?
no (0)

Assay outcome for O=C(O)CNC(=O)c1ccc([As](=O)(O)O)cc1 : what was it?
no (0)

Assay outcome for N=C(N)c1ccc(/N=N\c2c(O)ccc3c2[nH]c2ccccc23)cc1 : what was it?
no (0)

Assay outcome for O=c1cc(NNc2cccc(Cl)c2)[nH]c(=O)[nH]1 : what was it?
no (0)

Assay outcome for CCC1(CC)C(=O)CC[C@@]2(C)C1=CC[C@H]1[C@@H]3CC[C@H](O)[C@@]3(C)CC[C@@H]12 : what was it?
no (0)

Assay outcome for COc1cc2cnc3c4cc(OC)c(OC(C)C)cc4ccc3c2cc1OC : what was it?
no (0)

Assay outcome for CC1=C[C@@H](C)C[C@]2(C)CC[C@H](O2)[C@]23CC[C@](C(=O)O)(C[C@H](O2)[C@@H]2O[C@@](C)(CC2=O)[C@@H](O)[C@H]2CC[C@@]4(CCC[C@@H](O4)[C@H](C)C(=O)O[C@H]4C[C@H]([C@]5(O)OCC[C@H](C)[C@@H]5O)O[C@H]4C=C1)O2)O3 : what was it?
no (0)

Assay outcome for COC(=O)C(/C(=N/NC(N)=S)C(=O)Nc1ccccc1[N+](=O)[O-])c1cnc2ccccc2n1 (configuration not stated) : what was it?
no (0)

Assay outcome for C[S+](C)CC1OC(n2cnc3c(N)ncnc32)C(O)C1O (configuration not stated) : what was it?
no (0)
